Data provenance: PubChem BioAssay (NCI)

# Tested on: HS 578T breast
# assayInfo: NCI tumour cell line growth inhibition, 48 h

compound	experimentalSystem	TGI
CN1CCN(c2ccc3nc(-c4ccc5nc(-c6ccc(N(C)CCCl)cc6)[nH]c5c4)[nH]c3c2)CC1	HS 578T breast	0.58 µM
Cc1cc(Cl)ccc1Nc1nc(C(F)(F)F)ccc1C(=O)N/N=C/c1ccc(N(C)C)cc1	HS 578T breast	> 100 µM
O=C(O)C1(CC(CCCN2CCCCC2)c2ccccc2)CCCC1 (stereo not given)	HS 578T breast	> 100 µM
COc1ccc2c(c1)-c1c(c3ccccc3n1CCN1CCOCC1)CC2	HS 578T breast	32.3 µM
O=C(O)c1ccc(/C=N\N(CCO)C2=NCCN2)cc1	HS 578T breast	> 100 µM
COc1ccc(NCc2c(O)ccc3ccccc23)cc1	HS 578T breast	> 100 µM
Cc1sc2c(c1C)C(c1ccc(Cl)cc1)=N[C@@H](CC(=O)Nc1ccc(O)cc1)c1nnc(C)n1-2	HS 578T breast	27.2 µM
COc1ccc(CC(C#N)c2cc(OC)c(OC)c(OC)c2)cc1 (stereo not given)	HS 578T breast	> 100 µM
C#CCOc1cccc(Nc2ncnc3c2ncn3C2CCN(C(=O)CCl)C2)c1 (stereo not given)	HS 578T breast	91.5 µM
O=C(O)[C@H]1NC[C@@H]2ON=C(Br)[C@@H]21	HS 578T breast	> 100 µM
O=C1O[C@H](COC(=O)c2ccccc2)[C@@H](OC(=O)c2ccccc2)C=C1OC(=O)c1ccccc1	HS 578T breast	> 100 µM
CCOC(=O)c1[nH]n(-c2ccccc2)c(=O)c1C=NC(=S)C(N)=S	HS 578T breast	> 100 µM
CCOC(=O)c1cn2ncnc(Oc3ccc(NC(=O)NCCN(CC)CC)c(Cl)c3)c2c1C	HS 578T breast	21.7 µM
COc1cc(C2c3cc4c(cc3OC(N3CCOCC3)C2C)OCO4)cc(OC)c1OC (stereo not given)	HS 578T breast	0.722 µM
C=C1C(=O)O[C@H]2[C@H]1CC/C(COC(=O)NCc1cccc(OC)c1)=C\CC[C@@]1(C)O[C@@H]21	HS 578T breast	37.8 µM
CC(C)[C@H](O)C(=O)N[C@H]1Cc2ccc3c(c2)[C@]24C5=C(N=C(O5)[C@H](C(C)C)NC1=O)c1nc(Cl)c(o1)-c1c(Cl)[nH]c5cccc(c15)-c1cccc2c1N[C@H]4O3	HS 578T breast	> 10 µM
O=C1CSC(c2c(O)ccc3ccccc23)N1n1c(=S)[nH]nc(/C=C/c2c(O)ccc3ccccc23)c1=O (stereo not given)	HS 578T breast	> 100 µM
Cc1cc2nc(NS(=O)(=O)c3cc(C)c(Cl)cc3S)[nH]c2cc1C	HS 578T breast	> 100 µM
C=C(C)C1CCC2(CO)C(O)CC3(C)C(CCC4C5(C)CCC(O)C(C)(C)C5CCC43C)C12 (stereo not given)	HS 578T breast	90.7 µM
COC(=O)c1cccc2c1Oc1ccccc1S2	HS 578T breast	> 100 µM

* * *

# Tested on: HS 578T breast
# assayInfo: NCI tumour cell line growth inhibition, 48 h
parameterMeasured: TGI (µM)

>>> df
                                   compound  experimentalsystem  valueunit  valuequalifier  experimentalresult
0             Cc1[nH]ccc2cc3nc4ccccc4c3cc12      HS 578T breast         µM               =                  18
1  Cc1ccc(N2C(=O)C(O)=C(C(=O)C(C)(C)C)C2c2ccc([N+](=O)[O-])cc2)cc1 (stereo not drawn)      HS 578T breast         µM               =                45.3
2  OC(C1CCCC1=N/N=C1/CCCC1C(O)(C(F)(F)Cl)C(F)(F)Cl)(C(F)(F)Cl)C(F)(F)Cl (stereo not drawn)      HS 578T breast         µM               >                  10
3  Cc1cc(S(=O)(=O)Nc2nc3ccsc3c(=O)n2Cc2ccccc2)c(S)cc1Cl      HS 578T breast         µM               >                 100
4  O=C(O)C1Cc2ccccc2OC1=O (stereo not drawn)      HS 578T breast         µM               >                 100
5  CCOc1ccc(-n2c(=O)n3c(Nc4ccc(Cl)cc4)nc4c(c(=O)n(C)c(=O)n4C)n3c2=O)cc1      HS 578T breast         µM               >                 100
6  CCCCCCCCC[C@@H]1C[C@@H]2CCC3C(C(=O)OCCCCNC(=O)OCc4ccccc4)=C(C)NC(=N1)N32 (stereo partly drawn)      HS 578T breast         µM               =                5.48
7  CN1CCN(CCCCNc2cc3c4ccccc4c(NCCCCN4CCN(C)CC4)cc3c3ccccc23)CC1      HS 578T breast         µM               =                5.65
